# Tested on: vaccinia virus; also: test concentration or dose not given here
# Assay type: cell-based
measurement.name: VACCINIA PLAQUE ASSAY 2

[
  {
    "molecule": "CCOC(=O)c1ccc(-c2ccc3c(-c4ccc(C(=O)OCC)cc4)n[nH]c3n2)cc1 [APcK-48]",
    "measured": "SMALL PLAQUES"
  },
  {
    "molecule": "COc1ccc(OC)c(S(=O)(=O)Nc2cccc(-c3ccc4nnc(-c5cccs5)n4n3)c2)c1 [YYB44]",
    "measured": "SMALL PLAQUES"
  },
  {
    "molecule": "Cc1ccc(NC(=O)c2ccc(CN3CCN(C)CC3)cc2)cc1Nc1nccc(-c2cnccc2C)n1 [StiAF3_Ue]",
    "measured": "NO PLAQUES"
  },
  {
    "molecule": "Cc1ccc(-n2c(=O)[nH]c3c(C(N)=O)nc(-c4c(Cl)cccc4[N+](=O)[O-])nc32)cc1 [dm-I-193]",
    "measured": "NO PLAQUES"
  },
  {
    "molecule": "CCc1nnc2ccc(-c3cccc(NC(=O)c4ccc(OC)c(OC)c4)c3)nn12 [YYB41]",
    "measured": "SMALL PLAQUES"
  }
]

Now let's try a different one.
molecule Cn1c(=O)c(-c2c(Cl)cccc2Cl)cc2cnc(NC3CCN(Cc4ccccc4)CC3)nc21 [YYA188] , VACCINIA PLAQUE ASSAY 2 observed: NO PLAQUES
